Molecular target: Plasmodium falciparum protein kinase 6 (PK6) (Plasmodium falciparum, UniProt Q8IDW1)
Construct: 6-Histidine (N); made in house
Sequence (Q8IDW1 1-305): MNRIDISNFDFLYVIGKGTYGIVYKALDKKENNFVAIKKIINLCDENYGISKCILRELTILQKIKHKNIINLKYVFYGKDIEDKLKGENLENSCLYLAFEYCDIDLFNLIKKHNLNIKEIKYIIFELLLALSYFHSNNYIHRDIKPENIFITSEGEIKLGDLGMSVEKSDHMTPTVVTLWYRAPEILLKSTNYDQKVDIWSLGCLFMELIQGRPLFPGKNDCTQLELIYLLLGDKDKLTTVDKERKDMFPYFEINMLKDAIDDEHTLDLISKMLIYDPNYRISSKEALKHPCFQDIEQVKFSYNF
Assay: biochemical
readout: pIC50
# pIC50: negative log10 of molar concentration; output just the value

## Task Entry under review: CCN(CC)CCNc1nccc(N(C)c2ccc(NC(=O)Nc3cc(C(F)(F)F)ccc3F)cc2)n1.O=C(O)C(F)(F)F [TCMDC-141632] . Reported pIC50?
## Result 6.04

## Task Need pIC50 of CCN(CC)CCOc1ccc(Nc2ncc3cc(-c4c(Cl)cccc4Cl)c(=O)n(C)c3n2)cc1 [TCMDC-140940] , thanks.
## Result 6.46

---

Biological target: TAOK2 (Homo sapiens)
Sequence (Q9UL54 1-1235): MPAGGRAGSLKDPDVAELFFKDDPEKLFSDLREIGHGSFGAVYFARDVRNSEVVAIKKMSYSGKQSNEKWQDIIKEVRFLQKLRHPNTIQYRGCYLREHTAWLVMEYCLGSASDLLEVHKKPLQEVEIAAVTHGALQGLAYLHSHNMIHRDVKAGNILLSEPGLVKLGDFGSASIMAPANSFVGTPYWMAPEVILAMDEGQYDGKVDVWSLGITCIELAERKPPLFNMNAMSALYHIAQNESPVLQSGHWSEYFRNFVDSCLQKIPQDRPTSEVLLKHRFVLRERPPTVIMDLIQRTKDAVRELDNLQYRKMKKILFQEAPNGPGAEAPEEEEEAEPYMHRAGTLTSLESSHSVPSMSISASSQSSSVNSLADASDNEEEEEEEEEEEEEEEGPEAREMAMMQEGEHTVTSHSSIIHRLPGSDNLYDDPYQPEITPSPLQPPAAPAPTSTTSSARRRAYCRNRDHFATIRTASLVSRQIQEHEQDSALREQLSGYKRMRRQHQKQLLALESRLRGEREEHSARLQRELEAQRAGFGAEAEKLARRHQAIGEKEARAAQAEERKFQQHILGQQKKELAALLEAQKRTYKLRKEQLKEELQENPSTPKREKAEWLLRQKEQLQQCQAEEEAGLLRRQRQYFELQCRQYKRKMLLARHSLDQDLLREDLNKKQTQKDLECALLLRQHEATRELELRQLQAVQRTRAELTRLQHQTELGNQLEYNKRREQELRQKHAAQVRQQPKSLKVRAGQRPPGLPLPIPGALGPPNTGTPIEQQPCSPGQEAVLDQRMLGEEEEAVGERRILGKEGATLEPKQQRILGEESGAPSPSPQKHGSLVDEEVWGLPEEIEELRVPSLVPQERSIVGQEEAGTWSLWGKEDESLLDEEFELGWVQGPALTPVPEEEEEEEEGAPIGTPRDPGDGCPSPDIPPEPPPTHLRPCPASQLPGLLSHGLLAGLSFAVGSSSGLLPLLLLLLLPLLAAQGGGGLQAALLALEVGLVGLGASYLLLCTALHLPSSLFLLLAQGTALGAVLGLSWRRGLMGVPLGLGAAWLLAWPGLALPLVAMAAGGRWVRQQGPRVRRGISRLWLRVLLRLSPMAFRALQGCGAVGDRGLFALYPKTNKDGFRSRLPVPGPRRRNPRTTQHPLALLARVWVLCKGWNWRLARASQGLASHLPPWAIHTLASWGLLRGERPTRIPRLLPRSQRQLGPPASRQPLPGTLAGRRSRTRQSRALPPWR
Assay: biochemical
Details: read-out: KDapp
readout: pKd
When answering, recall that pKd equals minus log10 of the concentration in mol/L, and write that number alone.

## Task For CN1CCN(c2ccc(Nc3ncc(C#N)c(Nc4ccccc4C(N)=O)n3)cc2)CC1.Cl , what is its reported pKd?
## Result 6.56

---

target: WEE1 (Homo sapiens); test: biochemical; details: read-out: KDapp
Sequence (P30291 whole entry): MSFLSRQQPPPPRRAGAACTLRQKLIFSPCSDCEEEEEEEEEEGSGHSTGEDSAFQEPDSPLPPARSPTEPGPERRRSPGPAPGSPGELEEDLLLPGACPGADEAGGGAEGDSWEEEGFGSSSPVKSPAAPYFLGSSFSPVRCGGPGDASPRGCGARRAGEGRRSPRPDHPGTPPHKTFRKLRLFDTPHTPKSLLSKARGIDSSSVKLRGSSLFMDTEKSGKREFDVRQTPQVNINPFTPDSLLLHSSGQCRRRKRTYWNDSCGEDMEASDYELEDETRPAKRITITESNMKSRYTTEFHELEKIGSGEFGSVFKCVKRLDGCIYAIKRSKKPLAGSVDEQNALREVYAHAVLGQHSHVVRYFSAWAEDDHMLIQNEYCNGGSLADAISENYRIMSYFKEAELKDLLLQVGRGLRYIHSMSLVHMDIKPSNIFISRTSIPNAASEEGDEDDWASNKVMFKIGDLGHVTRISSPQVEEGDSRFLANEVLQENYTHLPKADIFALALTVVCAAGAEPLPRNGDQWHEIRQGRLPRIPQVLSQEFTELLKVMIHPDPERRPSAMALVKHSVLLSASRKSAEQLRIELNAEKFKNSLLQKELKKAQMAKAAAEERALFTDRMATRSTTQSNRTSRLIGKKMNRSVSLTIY
readout: Kd (µM)
Lab book: enter the figure in µM, no units written.

## Task What Kd value was documented for this compound, CN(C)CC(O)COc1ccc(Nc2ncc([N+](=O)[O-])c(Nc3ccccc3O)n2)cc1.O=C(O)C(F)(F)F (stereo not shown) ?
## Result 0.209

---

biological target: GSK3B (Homo sapiens); assay: biochemical; conditions: read-out: KDapp
Sequence (P49841 whole entry): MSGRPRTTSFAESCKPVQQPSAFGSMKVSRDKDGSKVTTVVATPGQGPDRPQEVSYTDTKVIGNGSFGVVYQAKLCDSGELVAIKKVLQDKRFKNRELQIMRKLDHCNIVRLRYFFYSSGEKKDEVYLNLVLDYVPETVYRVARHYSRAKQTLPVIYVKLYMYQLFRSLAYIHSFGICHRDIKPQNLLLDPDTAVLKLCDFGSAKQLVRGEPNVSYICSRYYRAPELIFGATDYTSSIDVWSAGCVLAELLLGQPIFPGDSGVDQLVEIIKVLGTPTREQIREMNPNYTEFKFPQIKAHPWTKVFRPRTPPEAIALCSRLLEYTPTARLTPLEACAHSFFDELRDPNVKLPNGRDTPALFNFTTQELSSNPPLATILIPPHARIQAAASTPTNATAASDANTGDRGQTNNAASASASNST
readout: pKd
In simple prose, pKd is minus the logarithm base ten of a concentration in moles per litre.

## Task Return reported pKd; argument: Cl.NCC1(c2nc(-c3ccc(Cl)c(O)c3)c(-c3ccncc3)[nH]2)CCCCC1 [TCMDC-141154]
## Result 5.56

---

Kindly state IC50 for each of the entries shown.
target: PKG (Plasmodium falciparum); assay: PKG IC50 (supplementary data file); format: biochemical
Sequence (Q8I719 whole entry): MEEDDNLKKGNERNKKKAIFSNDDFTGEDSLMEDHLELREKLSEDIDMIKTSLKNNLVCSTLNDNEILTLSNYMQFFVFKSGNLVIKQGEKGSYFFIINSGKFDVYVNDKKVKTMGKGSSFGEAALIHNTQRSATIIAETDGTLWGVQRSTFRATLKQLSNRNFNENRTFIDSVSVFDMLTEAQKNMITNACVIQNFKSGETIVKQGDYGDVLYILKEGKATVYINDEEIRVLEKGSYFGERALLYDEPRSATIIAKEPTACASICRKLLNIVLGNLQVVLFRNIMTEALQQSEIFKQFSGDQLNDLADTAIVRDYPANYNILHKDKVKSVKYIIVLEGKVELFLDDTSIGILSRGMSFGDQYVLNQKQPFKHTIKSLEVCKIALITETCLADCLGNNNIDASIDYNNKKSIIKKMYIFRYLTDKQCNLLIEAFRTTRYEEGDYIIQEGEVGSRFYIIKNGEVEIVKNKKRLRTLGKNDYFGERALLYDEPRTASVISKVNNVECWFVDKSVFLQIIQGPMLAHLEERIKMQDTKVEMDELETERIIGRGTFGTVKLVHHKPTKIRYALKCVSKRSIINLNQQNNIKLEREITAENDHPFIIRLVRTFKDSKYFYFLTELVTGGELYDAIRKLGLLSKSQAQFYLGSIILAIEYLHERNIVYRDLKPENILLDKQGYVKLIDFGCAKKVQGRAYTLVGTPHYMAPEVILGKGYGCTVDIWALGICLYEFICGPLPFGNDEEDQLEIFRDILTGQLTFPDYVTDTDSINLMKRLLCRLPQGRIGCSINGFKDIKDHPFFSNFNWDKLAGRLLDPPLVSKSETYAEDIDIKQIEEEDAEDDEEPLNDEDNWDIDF

## Task Consider the molecule shown here: CCn1c(-c2nonc2N)nc2c(-c3cccc(NC(=O)Nc4cccc(Cl)c4)c3)ncc(OCCCN)c21.O=C(O)C(F)(F)F [TCMDC-136193] What is its recorded IC50?
## Result 0.926 µM

## Task Looking for the measured IC50 of CS(=O)(=O)Cc1ccc(Nc2nccc(-c3c(-c4cccc(NC(=O)c5c(F)cccc5F)c4)nn4ccccc34)n2)cc1 [TCMDC-135669] , can you help?
## Result > 10 µM

## Task # input molecule: CN1CCN(c2ccc(Nc3nccc(-c4c(-c5cccc(NC(=O)c6c(F)cccc6F)c5)nn5ccccc45)n3)cc2)CC1 [TCMDC-135818] ; wanted: its IC50
## Result 0.115 µM

---

Kindly supply the reported log10 of IC50 values for the records listed here.
biological target: Plasmodium falciparum protein kinase 6 (PK6) (Plasmodium falciparum, UniProt Q8IDW1); construct: 6-Histidine (N); made in house; assay: biochemical; conditions: hits below 1 uM; read-out: PK6 IC50
Values below are the log10 of the recorded IC50, with nM as the unit.

## Task Need log10 of IC50, item CN(c1ccc(NC(=O)Nc2cc(C(C)(C)C)on2)cc1)c1ccnc(NCCN2CCOCC2)n1.O=C(O)C(F)(F)F [TCMDC-141706]
## Result 2.57

## Task Suppose we examine the molecule CC(c1cccc(Nc2nccc(-c3c(-c4cccc(NC(=O)c5c(F)cccc5F)c4)nn4ncccc34)n2)c1)S(C)(=O)=O (stereo not shown) [TCMDC-135696] ; what log10 of IC50 value has been reported?
## Result 2.57

## Task Give the measured log10 of IC50 of CCN(CC)CCCNc1nccc(N(C)c2ccc(NC(=O)Nc3cc(C(F)(F)F)ccc3F)cc2)n1.O=C(O)C(F)(F)F [TCMDC-141634] .
## Result 2.85

## Task Recorded log10 of IC50 for COc1c(CN2CCOCC2)cccc1-c1cc2c(-c3ccc(C(=O)O)c(C(C)C)c3)ccnc2[nH]1.O=C(O)C(F)(F)F [TCMDC-135049] , please?
## Result 2.84

## Task What measured log10 of IC50 goes with CNC(=O)c1ccccc1Nc1nc(Nc2ccc(N3CCOCC3)cc2)ncc1Cl.Cl [TCMDC-134144] ?
## Result 1.62

## Task # get_value(readout='log10 of IC50', item= CN(c1ccc(NC(=O)Nc2cccc(Cl)c2)cc1)c1ccnc(N)n1.Cl [TCMDC-138782] )
## Result 2.60

## Task What value of log10 of IC50 has been reported for the following molecule? NCCNC(=O)c1ccc(-c2cnc3[nH]cc(-c4ccc(C(N)=O)cc4)c3c2)cc1 [TCMDC-132359]
## Result 2.97

---

readout: IC50 (µM)
Reply with just the number (in µM).

## Task Param readout = IC50; param system = ULK1 (Homo sapiens); param query = CN1CCN(c2ccc(Nc3ncc(C#N)c(Nc4ccccc4C(N)=O)n3)cc2)CC1.Cl ; response: value
Sequence (O75385 whole entry): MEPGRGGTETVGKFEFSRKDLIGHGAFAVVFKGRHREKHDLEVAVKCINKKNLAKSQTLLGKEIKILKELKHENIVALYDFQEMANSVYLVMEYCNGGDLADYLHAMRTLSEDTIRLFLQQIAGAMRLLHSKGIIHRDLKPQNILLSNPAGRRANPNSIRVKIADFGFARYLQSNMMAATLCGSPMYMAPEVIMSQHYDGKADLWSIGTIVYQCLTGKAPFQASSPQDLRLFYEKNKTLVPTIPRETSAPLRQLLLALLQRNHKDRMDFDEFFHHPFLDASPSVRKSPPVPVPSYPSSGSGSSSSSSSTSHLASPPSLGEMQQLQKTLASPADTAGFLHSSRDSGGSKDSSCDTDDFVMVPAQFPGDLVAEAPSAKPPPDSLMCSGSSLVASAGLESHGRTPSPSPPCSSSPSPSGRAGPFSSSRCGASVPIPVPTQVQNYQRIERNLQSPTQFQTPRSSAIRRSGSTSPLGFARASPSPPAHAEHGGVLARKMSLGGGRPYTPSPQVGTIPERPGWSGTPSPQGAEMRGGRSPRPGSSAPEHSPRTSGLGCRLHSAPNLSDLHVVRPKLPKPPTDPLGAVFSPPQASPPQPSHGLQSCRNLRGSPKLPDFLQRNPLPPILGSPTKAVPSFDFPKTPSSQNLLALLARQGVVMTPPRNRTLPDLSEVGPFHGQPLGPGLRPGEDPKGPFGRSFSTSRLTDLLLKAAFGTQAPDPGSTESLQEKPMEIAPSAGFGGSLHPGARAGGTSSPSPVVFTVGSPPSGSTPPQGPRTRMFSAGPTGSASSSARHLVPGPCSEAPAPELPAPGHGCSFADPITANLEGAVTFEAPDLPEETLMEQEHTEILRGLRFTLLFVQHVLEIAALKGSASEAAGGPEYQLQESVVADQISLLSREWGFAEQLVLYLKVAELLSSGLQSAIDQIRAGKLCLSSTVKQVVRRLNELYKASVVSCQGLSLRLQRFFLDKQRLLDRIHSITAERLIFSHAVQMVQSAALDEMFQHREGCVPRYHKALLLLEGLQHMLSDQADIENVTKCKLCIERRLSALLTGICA
## Result 0.16

---

Target chain: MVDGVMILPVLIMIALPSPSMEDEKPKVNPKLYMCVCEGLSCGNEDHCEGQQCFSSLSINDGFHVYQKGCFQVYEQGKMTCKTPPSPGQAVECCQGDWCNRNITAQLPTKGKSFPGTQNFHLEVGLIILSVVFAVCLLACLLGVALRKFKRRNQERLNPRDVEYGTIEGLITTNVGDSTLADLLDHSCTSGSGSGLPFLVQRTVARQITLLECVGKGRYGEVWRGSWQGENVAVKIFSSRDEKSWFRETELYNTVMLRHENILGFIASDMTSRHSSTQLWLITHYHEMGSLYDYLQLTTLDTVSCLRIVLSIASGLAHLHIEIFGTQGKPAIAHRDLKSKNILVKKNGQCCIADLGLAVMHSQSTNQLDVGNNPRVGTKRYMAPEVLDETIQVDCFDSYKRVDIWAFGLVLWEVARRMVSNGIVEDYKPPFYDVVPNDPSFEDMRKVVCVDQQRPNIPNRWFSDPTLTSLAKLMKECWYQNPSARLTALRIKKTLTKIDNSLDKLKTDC
pIC50: −log10 of the molar value.
readout: pIC50

## Task Can you share its pIC50? I mean this molecule: CN(C)CC(O)COc1ccc(Nc2ncc([N+](=O)[O-])c(Nc3ccccc3O)n2)cc1.O=C(O)C(F)(F)F (stereo not drawn)
## Result < 4.70

## Task Name the recorded pIC50 for Cl.NCC1(c2nc(-c3ccc(Cl)c(O)c3)c(-c3ccncc3)[nH]2)CCCCC1 .
## Result < 4.70

## Task Can you share its pIC50? I mean this molecule: CN1CCN(c2ccc(Nc3ncc(C#N)c(Nc4ccccc4C(N)=O)n3)cc2)CC1.Cl
## Result 5.09
